ASSAY COMMENT: reduction of polyQ htt aggregates in cells – imaging, exon1htt(103Q)mCFP cells, high-content imaging, primary screen (AID 483);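 further: compound exposure lasted 3 days before fixation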
CONDITION INFO: exon1htt(103Q)mCFP cell line, aggregate imaging, at 2 µM; stronger effect = higher value
MEASUREMENT TYPE: inhibition of aggregation (%)
API: value field is a number in %; no unit string.

Input line: Could you tell me which inhibition of aggregation is on file for `O=C(NCC(=O)N1CCC(N2CCCCC2)CC1)C1CCCCC1` ?
Output line: 19.9

Input line: # inhibition of aggregation lookup, item `CCN1CCN(c2ncc(C(=O)N3CCN(c4ccccc4OC)CC3)c3ccccc23)CC1`
Output line: 0.9

Input line: Can you share its inhibition of aggregation? I mean this molecule: `CC(C)c1nnc(NC(=O)CCC(=O)NCc2ccc3c(c2)OCO3)s1`
Output line: -5.1

Input line: Consider the molecule shown here: `COc1ccc(OC)c(C(=O)COC(=O)c2cc(C)oc2C)c1` What is its recorded inhibition of aggregation?
Output line: 38.1

Input line: Form field: reported inhibition of aggregation of `Cc1c(NC(=O)c2noc3c2CCc2ccccc2-3)c(=O)n(-c2ccccc2)n1C`
Output line: -4.3

Input line: Endpoint output: inhibition of aggregation of CCN1CCN(C(=O)C2CC(c3ccc(F)cc3)=NO2)CC1 (stereo unspecified) . Value?
Output line: 3

Input line: # input molecule: `COc1ccc(S(=O)(=O)N2CN(Cc3ccco3)c3nc4ccccc4nc32)cc1` ; wanted: its inhibition of aggregation
Output line: -1.4

Input line: Fill in: inhibition of aggregation of `COc1ccc(/C=N/n2cc(-c3ccc(OC)cc3)nc2N)cc1` is ___
Output line: 2.2

Input line: Could you tell me which inhibition of aggregation is on file for `COc1ccccc1NC(=O)CSc1nnnn1-c1ccc2c(c1)OCO2` ?
Output line: 21.1

Input line: Reported inhibition of aggregation for `C=CCN=C1SCC(=O)N1S(=O)(=O)c1ccc(C)cc1` : what is it?
Output line: 3.3

Input line: I'd like to know its inhibition of aggregation. The molecule in question is `O=C(Nc1nccs1)c1ccc(COc2ccccc2Br)o1`
Output line: -27.8

###

Answer each item with its documented nuclei count.
ASSAY COMMENT: reduction of polyQ htt aggregates in cells – imaging, exon1htt(103Q)mCFP cells, high-content imaging, primary screen (AID 483);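 further: compound exposure lasted 3 days before fixation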;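 on nuclei count: percent of the per-plate median nuclei count of sample wells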
CONDITION INFO: exon1htt(103Q)mCFP cell line, aggregate imaging, at 2 µM; measured here: cell count, toxicity
Could you kindly put the unit after your number?

Input line: Item `O=C(Nc1nc2c(s1)CCc1ccccc1-2)c1cccs1` has what recorded nuclei count?
Output line: 115%

Input line: Please give the measured nuclei count for this compound: `COc1ccc(C(=O)N(CCN2CCOCC2)CC(=O)NC2CCCC2)cc1OC`
Output line: 108%

Input line: Which nuclei count is listed for CCC(C)NC(=O)c1ccccc1NC(=O)C(C)N(c1ccccc1)S(C)(=O)=O (stereo unspecified) ?
Output line: 108%

Input line: Given the compound `Cc1cc(C)n(CCc2nc(-c3cccs3)cs2)n1` , what is its reported nuclei count?
Output line: 98.6%

Input line: I'd like to know its nuclei count. The compound in question is CC(NC(=O)C1CC1)C(c1cccs1)N1CCN(c2ccccc2)CC1 (stereo unspecified)
Output line: 100%

Input line: Record request: nuclei count value, item CC1CC(C)CN(c2ncnc3c2cnn3-c2ccc(Cl)cc2)C1 (stereo unspecified)
Output line: 79.5%

###

ASSAY COMMENT: inhibitors of TNFa-induced NFkB p65 translocation, primary screen, imaging, HUVEC, MLSMR starter and 10KST1 sets (AID 438);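 further: compound added about 3h40 before a 20 min TNFalpha stimulation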
CONDITION INFO: HUVEC TNFa-induced p65 nuclear translocation; measured here: nuclei count (cytotoxicity indicator), at 2.08 µM
MEASUREMENT TYPE: cell count
Just the number, please, no unit attached.

Input line: Value lookup for cell count; key = O=C(CC1CCS(=O)(=O)C1)Nc1ccc[nH]c1=O (stereo unspecified)
Output line: 475

Input line: Please report the recorded cell count for `O=C(NCCCCNC(=O)c1c(F)c(F)c(F)c(F)c1F)c1c(F)c(F)c(F)c(F)c1F` .
Output line: 778

Input line: Record request: cell count value, item COC(=O)CC1C(=O)NCCN1C(=O)NC1CCCCC1 (stereo unspecified)
Output line: 714

Input line: For `Cc1ccccc1-n1nnnc1SCC(=O)Nc1ccc(S(=O)(=O)N2CCCC2)cc1` , what is its reported cell count?
Output line: 675

Input line: Form field: reported cell count of `O=C(OCC(=O)c1ccccc1Br)c1ccccn1`
Output line: 308

Input line: Please report the recorded cell count for CC1=C(C(=O)Nc2ccccc2)C(c2cccs2)C(C#N)=C(SCC#N)N1 (stereo unspecified) .
Output line: 713

Input line: Quick one: cell count of `CCS(=O)(=O)c1nc2ccccc2n1Cc1ccccc1Cl` ?
Output line: 689

Input line: What value of cell count has been reported for the following compound? CSCSC1=C(C#N)C(c2ccc(Cl)cc2)C(C(C)=O)=C(C)N1 (stereo unspecified)
Output line: 324

Input line: # get_value(readout='cell count', item= `CCOc1cccc2cc(C(=O)N3CCN(C/C=C/c4ccccc4)CC3)c(=O)oc12` )
Output line: 596

Input line: For `COCCOC(=O)/C=C1/NC(=O)CS1` , what is its reported cell count?
Output line: 669

Input line: Endpoint output: cell count of `O=C(COc1ccccc1Cl)NCc1ccco1` . Value?
Output line: 310

###

Kindly supply the reported slope values for the records listed here.
TARGET UNDER TEST: Alpha-2C adrenergic receptor (Homo sapiens) (UniProt P18825)
Sequence (P18825 whole entry, looked up): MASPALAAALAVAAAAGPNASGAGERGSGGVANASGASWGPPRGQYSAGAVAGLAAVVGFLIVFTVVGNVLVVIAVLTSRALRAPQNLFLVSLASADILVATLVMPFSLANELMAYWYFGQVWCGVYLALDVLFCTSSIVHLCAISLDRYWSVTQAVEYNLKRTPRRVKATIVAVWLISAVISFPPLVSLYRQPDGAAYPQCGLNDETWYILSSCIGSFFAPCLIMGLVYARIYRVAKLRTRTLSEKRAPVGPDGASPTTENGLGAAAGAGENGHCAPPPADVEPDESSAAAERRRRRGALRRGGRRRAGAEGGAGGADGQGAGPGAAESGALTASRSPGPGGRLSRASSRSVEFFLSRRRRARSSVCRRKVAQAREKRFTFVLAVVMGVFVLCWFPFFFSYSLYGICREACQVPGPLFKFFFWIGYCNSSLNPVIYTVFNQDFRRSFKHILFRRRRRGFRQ
ASSAY COMMENT: compounds altering alpha2C-coupled GIRK flux – cell-based, HEK293 alpha2C/GIRK1/2, thallium flux, primary screen (AID 624);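 further: slope of fluorescence ratio to pre-addition baseline per second over 15 to 24 s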
CONDITION INFO: thallium flux BTC fluorescence, at 10 µM, actives lie on both sides
Answer with a number only.

Input line: Could you share which slope value was measured for `CC(C)Cc1nnc(NC(=O)CCC(=O)N2CCOCC2)s1` ?
Output line: 0.00514

Input line: Query: slope; subject: COc1ccc(C(CC(=O)O)NC(=O)c2ccccc2)cc1OC (centres undefined)
Output line: 0.00391

Input line: Bench note: what slope did `Cc1ccc(S(=O)(=O)N2CCOCC(=O)NCCOCCNC(=O)COCC2)cc1` show?
Output line: 0.00426

Input line: What does the record list as slope for `N#CC1=C(N)SC(N)=C(C#N)C1c1ccc(C(F)(F)F)cc1` ?
Output line: 0.00688

Input line: Data request, read-out slope, for `COc1ccc(/C=N/n2cc(-c3ccc(OC)cc3)nc2N)cc1`
Output line: 0.00586

Input line: What does the data say about its slope? Entry: `O=C(O)c1cccn2c(=O)c3ccccc3nc12`
Output line: 0.0061

Input line: Item `Cc1nn(S(=O)(=O)N2CCCCC2)c(C)c1Br` has what recorded slope?
Output line: 0.00571

Input line: Quick check: slope of `CCOC(=O)c1ccc(NC(=O)CCc2c(C)nc3ncnn3c2C)cc1` ?
Output line: 0.00565

Input line: # input molecule: COCCn1nnnc1C(C(C)C)N1CCN(C(=O)c2ccco2)CC1 (centres undefined) ; wanted: its slope
Output line: 0.00753

Input line: Recorded slope for `O=C(c1cc(-c2cccc(O)c2)on1)N1CCN(C(c2ccccc2)c2ccccc2)CC1` , please?
Output line: 0.00689

Input line: Could you tell me which slope is on file for `Nc1ncnc2nc(Sc3ccc(Cl)cc3)[nH]c12` ?
Output line: 0.00627

Input line: Fill in: slope of `CC(=O)c1cn(CC(=O)NCc2ccc3c(c2)OCO3)c2ccccc12` is ___
Output line: 0.00566

Input line: Request the reported slope associated with `CN1CCN(C(=O)c2ccc(CS(=O)(=O)c3c(Cl)cccc3Cl)o2)CC1`
Output line: 0.00604

Input line: Please look up its slope: CC1=CCC2C(=O)N(c3nc(C)cc(C)n3)C(=O)C2C1 (centres undefined)
Output line: 0.00507

Input line: Bench note: what slope did CCOC(=O)C1CCCN(CCC(C)c2ccccc2)C1 (centres undefined) show?
Output line: 0.00315

Input line: Entry under review: `Cc1nc2ccccc2c(=O)n1CC(=O)N1CCOCC1` . Reported slope?
Output line: 0.00461

Input line: Name the reported slope value associated with the molecule `CCOC(=O)C1CCN(Cc2c(O)ccc3ccccc23)CC1`
Output line: 0.00484

Input line: Using the record for `N#Cc1c2n(c(=S)n(-c3ccccn3)c1=O)CCCCC2` , report its slope.
Output line: 0.00579

Input line: Given `O=C(O)CN1C(=O)C2(OCCCO2)c2ccccc21` , state its recorded slope.
Output line: 0.0059

Input line: slope for `O=C(Cn1ccc2ccccc2c1=O)Nc1ccc2c(c1)OCO2` ?
Output line: 0.00747

Input line: Given O=C(C1CCCN(S(=O)(=O)c2cccs2)C1)N1CCc2ccccc2C1 (centres undefined) , state its recorded slope.
Output line: 0.0027

Input line: Query (molecule): `CCCCOC(=O)CNc1nnc(SCC(=O)OCC)[nH]c1=O` ; field requested: slope
Output line: 0.00508

Input line: For the molecule O=C(Nc1ncc(Cc2ccccc2)s1)C1CCCO1 (centres undefined) , what slope is on record?
Output line: 0.00728

Input line: Consider the molecule shown here: `O=C(CCn1c(=S)[nH]c2cc3c(cc2c1=O)OCO3)N1CCN(C2CCCCC2)CC1` What is its recorded slope?
Output line: 0.00668
